Hello, the source for this data is the supplement of paper PMC12042874, in case you need it.

Experiment: amyloid nucleation score (Sup35N fusion, yeast selection) (log enrichment); library NNK2; higher = more nucleation; inactive = no reads after selection;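 note: zero at mode of non-aggregating sequences after 7 days selection at 30°C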
Classes are defined on amyloid nucleation score with ranges band A: < -0.3; band B: ≥ -0.3 and < 1; band C: ≥ 1

ILYGWGRMMCRPLPQGYWMV = band B
MVFVFKDSLIFSRSLYIMEC = band A
ARYMSQVRRTSSHTLNEKI = band B

Using the reported amyloid nucleation score, which band applies to "NAGVYLFYMCICYVKYFFYM" ?
band A

State the class of the sequence shown: "CRKYKLRHRADDCSMYCTRL"
band C

Bin this entry: "CHQCVNERFESKREPVPDHS"
band B

Any idea which band "HLFNGSGGLFSLTRSFMKS" is in?
band B

Which category does the recorded amyloid nucleation score put "FVLTCRSSLYAVRDRLK" in?
band C
